Assayed target: 5HT2C receptors (Homo sapiens)
Sequence (P28335 33-458): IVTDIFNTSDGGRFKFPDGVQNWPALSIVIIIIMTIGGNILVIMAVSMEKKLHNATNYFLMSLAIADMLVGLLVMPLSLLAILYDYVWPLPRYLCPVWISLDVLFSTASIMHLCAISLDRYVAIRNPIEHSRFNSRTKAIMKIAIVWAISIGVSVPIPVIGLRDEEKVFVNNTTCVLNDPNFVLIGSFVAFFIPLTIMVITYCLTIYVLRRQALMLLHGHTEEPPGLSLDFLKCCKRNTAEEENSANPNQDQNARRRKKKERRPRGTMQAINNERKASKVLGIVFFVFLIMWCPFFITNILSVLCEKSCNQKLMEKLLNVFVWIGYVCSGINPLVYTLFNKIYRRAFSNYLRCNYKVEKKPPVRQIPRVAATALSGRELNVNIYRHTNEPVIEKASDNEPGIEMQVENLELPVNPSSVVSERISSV
Test: Human 5-HT2C functional high throughput screening assay in CHO-K1 cells (calcium flux)
Assay type: cell-based
Set-up: expressed in transfected cells; host or cells: CHO-K1 cells
Condition details: 5-HT2C agonist activity; CHO-K1 cells; calcium flux; read-out: EC50
Give EC50 for every item shown.
Supply the numeric figure in nM, leaving out any unit text.

Request the reported EC50 associated with COc1ccc(-c2ccc3c(c2)C(=O)NC[C@@H]2CN(C)C[C@@H]32)c(OC)c1 (relative stereo) [Example 303]
40

Request the reported EC50 associated with COc1ccccc1-c1ccc2c(c1)C(=O)NC[C@H]1CN(C)C[C@H]21 [Example 275]
20

Request the reported EC50 associated with CC(=O)c1cccc(-c2ccc3c(c2)C(=O)NC[C@@H]2CN(C)C[C@@H]32)c1 (relative stereo) [Example 237]
3

Request the reported EC50 associated with O=C1NC[C@@H]2CNC[C@H]2c2sccc21 (relative stereo) [Example 104]
900

Request the reported EC50 associated with O=C1NC[C@@H]2CNC[C@H]2c2ccc(-c3ccsc3Cl)cc21 (relative stereo) [Example 385]
0.3

Request the reported EC50 associated with COc1ccc(F)c(-c2ccc3c(c2)C(=O)NC[C@@H]2CN(C)C[C@@H]32)c1 (relative stereo) [Example 323]
9

Request the reported EC50 associated with CN1C[C@H]2CCOc3ncccc3[C@@H]2C1 (relative stereo) [Example 268]
7000

Request the reported EC50 associated with c1cnc2c(c1)[C@@H]1CNC[C@H]1CCO2 (relative stereo) [Example 264]
1000
